# System: T-47D breast
# assay.summary: NCI-60 one-dose screen, 48 h (100 = growth as untreated, 0 = no growth, -100 = all killed)
# assay.setup: 10 µM
# Method: Growth inhibition of the T-47D human tumor cell line is measured as a screen for anti-cancer activity. Cells are grown in 96 well plates and exposed to the test compound for 48 hours. Compounds are tested at a single concentration, which is 10^-5 M for most compounds. The reported endpoint is percent growth (GI% or GIPRCNT), where numbers from 0 - 100% represent growth inhibition, and numbers from -100% - 0 represent cell death. For example, a value of 40 represents 60% growth inhibition. […]
Compounds without any hit were thinned out: in the full panel of roughly 83,000, 20% have a hit.
For each record, check the reported growth: if it is below 70% write 1 (yes), else write 0 (no).

compound | class.assignment
Cc1c(O)c(=O)ccn1C1CCC(CC2CCC(n3ccc(=O)c(O)c3C)CC2)CC1 (configuration not stated) | 1 (yes)
COc1cc(C(=O)N2CCN(c3cc4c(cc3F)c(=O)c(C(=O)NO)cn4C3CC3)CC2)cc(OC)c1OC | 0 (no)
COc1ccc(-c2onc(N)c2-c2cc(OC)c3c(c2)OCO3)cc1 | 1 (yes)

Ask | Just wondering, is growth of Cc1ccc(C(=O)/C=C/c2ccccc2)s1 below 70%?
Reply | 0 (no)

Ask | Lab note: confirm whether the reported growth for this compound is below 70%, equality not counting. compound: CC[C@H]1OC(=O)[C@H](C)[C@@H](O[C@H]2C[C@@](C)(OC)[C@@H](O)[C@H](C)O2)[C@H](C)[C@@H](O[C@@H]2O[C@H](C)C[C@H](N(C)C)[C@H]2O)[C@](C)(OC)C/C(C)=C2/O[C@@]1(C)C=C2C
Reply | 1 (yes)

Ask | Answer whether the compound CC[C@@H](C(=O)[C@H](C)[C@H](O)[C@@H](C)[C@H]1O[C@H]([C@@H](CC)C(=O)N(CC)CC)CC[C@H]1C)C1O[C@]2(C=C[C@@H](O)[C@]3(CC[C@@](C)([C@H]4CC[C@](O)(CC)[C@H](C)O4)O3)O2)[C@H](C)C[C@@H]1C (some centres not stated) has growth strictly less than 70%
Reply | 1 (yes)

---

# System: SF-295 CNS
# assay.summary: NCI-60 one-dose screen, 48 h (100 = growth as untreated, 0 = no growth, -100 = all killed)
# assay.setup: 10 µM
Compounds without any hit were thinned out: in the full panel of roughly 83,000, 20% have a hit.
experimental.endpoint: growth (%)
All answers are understood in %, so give the number only.

Please review the following examples before continuing.
molecule | experimental.endpoint | observed.result
C[C@]12CCC3c4ccc(O)cc4C[C@@H](CCCCCCCCCS(=O)CCCC(F)(F)C(F)(F)F)C3C1CC[C@@H]2O (stereo not given in full) | growth | 42.8
CN(C)c1ccc(/C=N/NC(=O)c2ccccc2Nc2cccc(C(F)(F)F)c2)cc1 | growth | 111

Ask | Return growth (reported value) for this molecule: CCCCN1C(=O)CC(SC2CC(=O)N(CCCC)C2=O)C1=O (stereo not given)
Reply | 109

Ask | Give recorded growth. COc1cc2cc(Oc3ccc(NC(=O)c4cccc(C(F)(F)F)c4)cc3)c(C)nc2cc1OC
Reply | 8.94

Ask | Assign growth to the following record: CCN(CC)CCCC(Nc1c2ccc(Cl)cc2nc2ccc(OC)cc12)c1ccc(F)cc1 (stereo not given)
Reply | 91.5

---

# Test system: UACC-62 melanoma
# assay.summary: NCI-60 one-dose screen, 48 h
# assay.setup: 10 µM
About 83,000 compounds went through this panel and 20% of them were active in at least one assay; those are over-represented in the sample as a whole. Active and inactive are the calls of the source. Rule for the calls: active = growth percent below 10; inactive = the rest.
// allowed return values: active, inactive

Sample answers from the record:
compound | class.assignment
Cc1ccc(-n2c(C)nn3c(=O)c4c5c(sc4nc23)CN(C)CC5)cc1 | inactive
Nc1cc(-c2ccncc2)c[nH]c1=O | inactive
Oc1cccc(-c2nc3sccn3c2-c2ccncn2)c1 | inactive
O=C1c2c(c(=O)[nH]c3ccccc23)CCN1Cc1ccccc1 | inactive
Nc1cc(Br)c(-c2nn3c(CCC(=O)c4nc5ccccc5[nH]4)nnc3s2)c(Br)c1 | inactive
COc1cc2cc(Oc3ccc(NC(=O)c4ccccc4)cc3)c(C)nc2cc1OC | inactive
Cc1ccc(/C=C/C(=O)C(=O)/C=C/c2ccc(C)cc2)cc1 | inactive
Cc1cc(C)nc(NS(=O)(=O)c2ccc(Nc3nc4nc(NCc5ccccc5)nc(-c5ccc(O)cc5)c4c(=O)[nH]3)cc2)n1 | inactive

Ask | Called result for O=C(N/N=C/c1c(Cl)cccc1Cl)c1ccccc1Nc1cccc(C(F)(F)F)c1
Reply | inactive

Ask | Just curious, what result did CN(C)CCCOc1ccccc1NC1=C(Cl)C(=O)C(Nc2ccccc2OCCCN(C)C)=C(Cl)C1=O get here?
Reply | active

Ask | Which result was noted for this compound in the test: CC(C)N(CCOc1cccc(-c2nc3sccn3c2-c2ccnc(S(C)(=O)=O)n2)c1)C(C)C
Reply | inactive

Ask | Test call, this compound: O=C1CC(=O)N(C(=O)c2nn(-c3ccc(Cl)cc3)cc2O)N1
Reply | inactive

Ask | # outcome recorded in this test, key = CCCCC(CC)CN=C(N)NC(N)=NCCCCCCN=C(N)NC(N)=NCC(CC)CCCC (centres undefined)
Reply | active

Ask | Query: recorded result category for NC1=CC(=O)C(=O)c2cccnc21 in this test
Reply | inactive

Ask | # fetch the recorded call for COc1cccc2ccc(CC(O)(c3ccccc3)c3ccccc3)nc12 here
Reply | inactive

Ask | For Fc1ccc2[nH]cc(-c3nc(-c4ccsc4)cs3)c2c1 , what call appears in the results of this test?
Reply | inactive

Ask | Short answer needed: outcome of this test for Oc1ccc(-c2[nH]c3ccccc3c2-c2nc3ccccc3o2)cc1 ?
Reply | inactive

Ask | Outcome? CN1CCN(C2=Nc3ccccc3Oc3ccc(Cl)cc32)CC1
Reply | inactive

Ask | Please state the recorded outcome for this compound: Clc1ccc(C2=NN=C3C(Cc4ccccc4)=Nc4ccccc4N3C2)cc1
Reply | inactive

Ask | Could you please tell me the result logged for O=c1oc2c(cc1-c1ccc(F)cc1)C(O)Oc1ccccc1-2 (centres undefined) in this assay?
Reply | inactive

Ask | Assay result, entry CN(C)CCCSc1ccccc1NC1=C(Cl)C(=O)C(Nc2ccccc2SCCCN(C)C)=C(Cl)C1=O — outcome?
Reply | inactive

Ask | Returns: the outcome recorded for Cc1ccc(-c2c3c(N)nc(-c4cccnc4)nc3nc3c2c(C)nn3-c2ccccc2)cc1 in this assay.
Reply | inactive

Ask | Write down the call the test reported for this compound. Item: COc1ccccc1/C=N\N/C(N)=N\N=C\c1ccccc1OC
Reply | inactive

Ask | Fill in: this test's call for COC(=O)CC[C@@H](C)[C@H]1CC[C@H]2[C@@H]3CC[C@@H]4C[C@H](O)CC[C@]4(C)[C@H]3C[C@H](O)[C@]12C is ___
Reply | inactive

Ask | Each compound tested received a call. Report the one for COc1cc2c3c(n([C@H]4CCOC4)c(=O)c2cc1OC)-c1cc2c(cc1C3=O)OCO2 .
Reply | inactive

Ask | What outcome does the record of this test show for Cc1cc(Cl)ccc1Nc1nc(C(F)(F)F)ccc1C(=O)N/N=C/c1c(Cl)cccc1Cl ?
Reply | active

Ask | Hi team, can someone confirm the assay call for CC(C)=CCC/C(C)=C/CC/C(C)=C/CC/C=C(\C)CC/C=C(\C)CCC(=O)Nc1ccn(C2OC(CO)C(O)C2(F)F)c(=O)n1 (centres undefined) ?
Reply | inactive

---

# Test system: MDA-MB-231 breast
# assay.summary: NCI-60 one-dose screen, 48 h
# assay.setup: 10 µM
# Description: Cells are grown in 96 well plates and exposed to the test compound for 48 hours. Compounds are tested at a single concentration, which is 10^-5 M for most compounds. The reported endpoint is percent growth (GI% or GIPRCNT), where numbers from 0 - 100% represent growth inhibition, and numbers from -100% - 0 represent cell death. For example, a value of 40 represents 60% growth inhibition. A value of 0 means no net growth occurred over the course of the experiment. […]
About 83,000 compounds went through this panel and 20% of them were active in at least one assay; those are over-represented in the sample as a whole. Calls of active or inactive are those of the source. Rule for the calls: active = growth percent below 10; inactive = the rest.
Please reply with one of these outcomes: Yes = active, No = inactive

Please review the entries below; each comes with its answer.
compound | target | class.assignment
COc1ccc(CCN2CCC(Nc3nc4ccccc4n3Cc3ccc(F)cc3)CC2)cc1 | MDA-MB-231 breast | Yes
CC[C@@H](C(=O)[C@H](C)[C@H](O)[C@@H](C)[C@H]1O[C@H]([C@@H](CC)C(=O)N(CC)CC)CC[C@H]1C)C1O[C@]2(C=C[C@@H](O)[C@]3(CC[C@@](C)([C@H]4CC[C@](O)(CC)[C@H](C)O4)O3)O2)[C@H](C)C[C@@H]1C (stereo partly drawn) | MDA-MB-231 breast | No
O=C1CC(=O)N(C(=O)c2nn(-c3ccc(Cl)cc3)cc2O)N1 | MDA-MB-231 breast | No
COc1ccc(C2CC(c3cccs3)=NN2c2ccc(S(N)(=O)=O)cc2)cc1 (stereo not drawn) | MDA-MB-231 breast | No
Oc1cccc(-c2nc3sccn3c2-c2ccncn2)c1 | MDA-MB-231 breast | No
CCOC(=O)CSc1nc(-c2cc(OC)ccc2OC)cc(-c2ccc(OC)cc2)c1C#N | MDA-MB-231 breast | No

Ask | Which outcome was assigned to C=C1CCC2(C#N)[C@H]3[C@H](CC[C@@H]2C)[C@@H](C)C[C@@H](CC(C)(C)NC(=O)CN2CCC2=O)[C@H]13 (stereo partly drawn) in this test?
Reply | No

Ask | # fetch the recorded call for Nc1nc(-c2ccc(Cl)cc2)cc(-c2cc3ccccc3oc2=O)n1 here
Reply | No
